Parameter: Hit score. Scope: all listed entries.
test system: SARS-CoV-2; assay: Antiviral activity against SARS-CoV-2 (USA-WA1/2020 strain) measured by imaging in HRCE cells at MOI 0.4 after 96 hrs (reported as hit score from 0-1 for on-disease vs off-disease activity: scores >0.6 considered hits); assay type: functional, Homo sapiens
In all, about 1,600 compounds were measured (“Hit score”: median about 0.13, highest 2% from about 0.46 on). For the sample, the highest values were picked, then their nearest neighbours and some compounds at random.
recorded endpoint: Hit score

molecule: COc1ccc2c3c1O[C@H]1C[C@@H](O)C=C[C@@]31CCN(C)C2
recorded value: 0.2532

molecule: CCC(c1ccccc1)c1c(O)c2ccccc2oc1=O (configuration not stated)
recorded value: 0.1829

molecule: Cc1nc2ccccc2n1Cc1ccc(Cl)cc1
recorded value: -0.04269

molecule: C=CC[N+]1([C@H]2C[C@H]3[C@@H]4CC[C@H]5C[C@H](O)[C@@H](N6CCOCC6)C[C@]5(C)[C@H]4CC[C@]3(C)[C@H]2OC(C)=O)CCCC1
recorded value: 0.1086

molecule: Brc1ccc(NC2C3CC4CC(C3)CC2C4)cc1 (configuration not stated)
recorded value: 0.3495

molecule: CC(C)COc1ccc(CNC(=O)N(Cc2ccc(F)cc2)C2CCN(C)CC2)cc1
recorded value: -0.09171

molecule: C=CC(=O)Nc1cccc(Oc2nc(Nc3ccc(N4CCN(C)CC4)cc3)nc3ccsc23)c1
recorded value: 0.2407

molecule: CCCCc1oc2ccc(NS(C)(=O)=O)cc2c1C(=O)c1ccc(OCCCN(CCCC)CCCC)cc1
recorded value: 0.03796

molecule: NS(=O)(=O)c1cc(-c2nnn[nH]2)c(NCc2cccs2)cc1Cl [AZOSEMIDE]
recorded value: 0.09549

molecule: CCCCC(C)(O)C/C=C/[C@H]1[C@H](O)CC(=O)[C@@H]1CCCCCCC(=O)OC (some centres not stated)
recorded value: -0.07952

molecule: COc1ccc(NC(=O)c2ccc(C(=N)N(C)C)cc2)c(C(=O)Nc2ccc(Cl)cn2)c1
recorded value: 0.004778

molecule: CC1(C)S[C@@H]2[C@H](NC(=O)Cc3ccccc3)C(=O)N2[C@H]1C(=O)O
recorded value: 0.164

molecule: Cc1cc(-c2ccc(/N=N/c3ccc4c(S(=O)(=O)[O-])cc(S(=O)(=O)[O-])c(N)c4c3O)c(C)c2)ccc1/N=N/c1ccc2c(S(=O)(=O)[O-])cc(S(=O)(=O)[O-])c(N)c2c1O.[Na+].[Na+].[Na+].[Na+]
recorded value: 0.2486

molecule: O=C(O)[C@@H]1CCCN1
recorded value: 0.14

molecule: CCCC(CCC)C(=O)O.CCCC(CCC)C(=O)[O-].[Na+] [DIVALPROEX SODIUM]
recorded value: 0.2277

molecule: Cl.OC(CNCC(O)C1CCc2cc(F)ccc2O1)C1CCc2cc(F)ccc2O1 (configuration not stated) [NEBIVOLOL HYDROCHLORIDE]
recorded value: 0.4783

molecule: CC1(C)S[C@@H]2[C@H](NC(=O)[C@H](N)c3ccc(O)cc3)C(=O)N2[C@H]1C(=O)[O-].[Na+] [AMOXICILLIN SODIUM]
recorded value: 0.05468

###

test system: SARS-CoV-2; test: Antiviral activity against SARS-CoV-2 (USA-WA1/2020 strain) measured by imaging in HRCE cells at MOI 0.4 after 96 hrs (reported as hit score from 0-1 for on-disease vs off-disease activity: scores >0.6 considered hits); assay type: functional, Homo sapiens
In all, about 1,600 compounds were measured (“Hit score”: median about 0.13, highest 2% from about 0.46 on). What follows is part of a selection rich in the highest values, with near analogues and random picks from the rest.
Rule: Hit score below 0.08 gives MET. Equal to or above 0.08 gives NOT MET.

molecule: CN1[C@@H]2CC[C@H]1C[C@@H](OC(=O)[C@H](CO)c1ccccc1)C2
label: MET
//
molecule: C[C@H]1C[C@@H]2[C@H]([C@@H](O)C[C@@]3(C)[C@H]2CC[C@]3(O)C(=O)CO)[C@@]2(C)C=CC(=O)C=C12
label: NOT MET
//
molecule: C[C@@H](O)[C@H]1C(=O)N2C(C(=O)O)=C([C@H]3CCCO3)S[C@H]12
label: NOT MET
//
molecule: CCc1cc(/C(C)=N/OCc2ccc(C3CCCCC3)c(C(F)(F)F)c2)ccc1CN1CC(C(=O)O)C1
label: MET
//
molecule: C[C@H](CCC(=O)O)[C@H]1CC[C@H]2[C@@H]3[C@H](O)C[C@@H]4C[C@H](O)CC[C@]4(C)[C@H]3C[C@H](O)[C@]12C
label: NOT MET
//
molecule: CCn1c(=O)c2c(nc(/C=C/c3ccc(OC)c(OC)c3)n2C)n(CC)c1=O
label: NOT MET
//
molecule: OC[C@H]1OC(O)[C@H](O)[C@@H](O)[C@@H]1O (stereo not given in full)
label: MET
//
molecule: Sc1ncnc2nc[nH]c12 [MERCAPTOPURINE ANHYDROUS]
label: NOT MET
//
molecule: O=c1ncnc2n([C@H]3O[C@@H](CO)[C@H](O)[C@@H]3O)[nH]cc1-2 [ALLOPURINOL RIBOSIDE]
label: NOT MET
//
molecule: CCCCC(F)(F)[C@@]1(O)CC[C@H]2[C@@H](CC(=O)[C@@H]2CCCCCCC(=O)O)O1
label: NOT MET
//
molecule: C=CCN1CC[C@]23c4c5ccc(O)c4O[C@H]2[C@@H](OCCOCCOCCOCCOCCOCCOCCOC)CC[C@@]3(O)[C@H]1C5
label: NOT MET
//
molecule: CC(C)CN(C[C@@H](O)[C@H](Cc1ccccc1)NC(=O)O[C@H]1CO[C@H]2OCC[C@H]21)S(=O)(=O)c1ccc(N)cc1
label: NOT MET
//
molecule: C#Cc1cccc(Nc2ncnc3cc4c(cc23)OCCOCCOCCO4)c1
label: NOT MET
//
molecule: COc1ccc(-c2cc(=O)c3c(O)c(OC)c(O)cc3o2)cc1OC
label: NOT MET
//
molecule: OC[C@H]1O[C@@](CO)(O[C@H]2O[C@H](CO)[C@@H](O)[C@H](O)[C@H]2O)[C@@H](O)[C@@H]1O
label: NOT MET
//
molecule: C#C[C@]1(O)CC[C@H]2[C@@H]3CCC4=CC(=O)CC[C@@H]4[C@H]3CC[C@@]21C
label: NOT MET
//
molecule: O=C(O)COCCN1CCN([C@H](c2ccccc2)c2ccc(Cl)cc2)CC1
label: MET
//
molecule: CN(C(=O)C(Cl)Cl)c1ccc(O)cc1 [DILOXANIDE]
label: MET
//
molecule: COC(=O)N[C@H](C(=O)N1CCC[C@H]1c1ncc(-c2ccc(-c3ccc(-c4cnc([C@@H]5CCCN5C(=O)[C@@H](NC(=O)OC)C(C)C)[nH]4)cc3)cc2)[nH]1)C(C)C
label: MET
//
molecule: CC(C)(C)CC(C)(C)c1ccc(OCCOCC[N+](C)(C)Cc2ccccc2)cc1
label: MET
//
molecule: CC[C@]12CCCN3CCc4c(n(c5ccccc45)C(=O)C1)[C@@H]32
label: NOT MET
//
molecule: CC1=C(C)C(=O)C(CCCCCCCCCC[P+](c2ccccc2)(c2ccccc2)c2ccccc2)=CC1=O
label: MET
//
molecule: C[C@]12CC[C@@H]3c4ccc(O)cc4CC[C@H]3[C@@H]1CC[C@@H]2OC(=O)CCC1CCCC1 [ESTRADIOL CYPIONATE]
label: NOT MET
//
molecule: CCCC[C@H](NC(=O)[C@@H]1[C@@H]2[C@H](CN1C(=O)[C@@H](NC(=O)NC1(CS(=O)(=O)C(C)(C)C)CCCCC1)C(C)(C)C)C2(C)C)C(=O)C(=O)NC1CC1
label: NOT MET
//
molecule: Cn1cnc2c(F)c(Nc3ccc(Br)cc3F)c(C(=O)NOCCO)cc21
label: MET
//
molecule: O=C(O)c1cc2ccccc2c(Cc2c(O)c(C(=O)O)cc3ccccc23)c1O
label: MET
//
molecule: Clc1ccc(C(OCCN2CCCCC2)c2ccccc2)cc1 (stereo not given)
label: NOT MET
//
molecule: Cc1nc(NC(=O)N2CCC[C@H]2C(N)=O)sc1-c1ccnc(C(C)(C)C(F)(F)F)c1
label: NOT MET
//
molecule: Cc1ccccc1C(=O)Nc1ccc(C(=O)N2CCCC(N(C)C)c3ccccc32)cc1 (stereo not given)
label: NOT MET
